# Lookup of reported EC50 keyed by entry
Molecular target: 5-HT2A (Homo sapiens)
Construct: host or cells: HEK293
Sequence (P28223 whole entry): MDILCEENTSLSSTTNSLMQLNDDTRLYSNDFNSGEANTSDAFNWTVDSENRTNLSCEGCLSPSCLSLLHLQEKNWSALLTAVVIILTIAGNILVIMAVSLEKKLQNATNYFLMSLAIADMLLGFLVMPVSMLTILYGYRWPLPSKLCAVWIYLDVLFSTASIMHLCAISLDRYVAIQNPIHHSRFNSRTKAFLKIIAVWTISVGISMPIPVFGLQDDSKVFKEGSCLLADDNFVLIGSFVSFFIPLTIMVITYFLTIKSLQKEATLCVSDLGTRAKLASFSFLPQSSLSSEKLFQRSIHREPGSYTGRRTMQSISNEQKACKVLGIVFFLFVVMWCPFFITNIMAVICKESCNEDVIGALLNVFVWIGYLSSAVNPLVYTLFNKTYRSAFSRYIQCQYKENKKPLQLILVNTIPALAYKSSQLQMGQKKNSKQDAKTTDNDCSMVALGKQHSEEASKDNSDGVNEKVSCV
Test: FLIPR Ca2+ flux functional assay, 5-HT2A receptor (stably transfected HEK293)
Type: cell-based

# Entry Smiles, Target Or Test System, EC50 (nM)
measured = [
    ("CCN(CC)CCc1cccc2cccc(OC)c12", "5-HT2A (Homo sapiens)", 457),
    ("CCN(C)CCc1cccc2cccc(OC)c12", "5-HT2A (Homo sapiens)", 158),
    ("CCN(C)CCc1cccc2ccc(F)cc12", "5-HT2A (Homo sapiens)", 168),
    ("CCCN(C)CCc1cccc2ccc(OC)cc12", "5-HT2A (Homo sapiens)", 125),
]

* * *

Target: 5-HT2C (Homo sapiens)
Construct: host or cells: HEK293
Sequence (P28335 33-458): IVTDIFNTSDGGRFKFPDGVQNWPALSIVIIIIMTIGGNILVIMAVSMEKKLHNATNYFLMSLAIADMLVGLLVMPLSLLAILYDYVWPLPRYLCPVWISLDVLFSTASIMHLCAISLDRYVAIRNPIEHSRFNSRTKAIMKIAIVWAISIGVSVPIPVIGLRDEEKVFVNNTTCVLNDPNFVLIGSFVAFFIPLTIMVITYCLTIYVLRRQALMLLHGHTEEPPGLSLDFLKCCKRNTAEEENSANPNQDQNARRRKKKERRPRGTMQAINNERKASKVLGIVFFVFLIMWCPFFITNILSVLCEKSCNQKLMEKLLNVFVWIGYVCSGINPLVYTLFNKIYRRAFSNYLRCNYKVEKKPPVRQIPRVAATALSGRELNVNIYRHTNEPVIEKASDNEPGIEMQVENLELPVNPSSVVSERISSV
Assay: FLIPR Ca2+ flux functional assay, 5-HT2C receptor (stably transfected HEK293)
Format: cell-based
pEC50: −log10 of the molar value.

# Entry Smiles, Target Or Test System, pEC50
data = [
    ("CN(C)CCc1cccc2ccc(F)cc12", "5-HT2C (Homo sapiens)", 7.34),
    ("CCN(C)CCc1cccc2ccc(F)cc12", "5-HT2C (Homo sapiens)", 7.48),
    ("COc1ccc2cccc(CCN(C)C(C)C)c2c1", "5-HT2C (Homo sapiens)", 6.22),
    ("CCN(CC)CCc1cccc2cccc(OC)c12", "5-HT2C (Homo sapiens)", 6.80),
    ("COc1cccc2c(CCN)cccc12", "5-HT2C (Homo sapiens)", 6.54),
    ("CCN(CC)CCc1cccc2ccc(OC)cc12", "5-HT2C (Homo sapiens)", 6.13),
    ("COc1cccc2cccc(CCN(C)C)c12", "5-HT2C (Homo sapiens)", 6.24),
    ("CN(C)CCc1cccc2ccc(Cl)cc12", "5-HT2C (Homo sapiens)", 7.21),
    ("CC(C)N(C)CCc1cccc2cccc(O)c12", "5-HT2C (Homo sapiens)", 7.27),
    ("CCN(C)CCc1cccc2cccc(OC)c12", "5-HT2C (Homo sapiens)", 6.70),
    ("COc1ccc2cccc(CCN(C)C)c2c1", "5-HT2C (Homo sapiens)", 7.48),
    ("CCN(C)CCc1cccc2ccc(OC)cc12", "5-HT2C (Homo sapiens)", 7.37),
    ("CCN(C)CCc1cccc2ccccc12", "5-HT2C (Homo sapiens)", 6.94),
    ("CCN(C)CCc1cccc2cccc(O)c12", "5-HT2C (Homo sapiens)", 7.82),
    ("CCCN(C)CCc1cccc2cccc(OC)c12", "5-HT2C (Homo sapiens)", 6.68),
    ("NCCc1cccc2ccc(F)cc12", "5-HT2C (Homo sapiens)", 9.00),
    ("CC(C)N(C)CCc1cccc2ccc(F)cc12", "5-HT2C (Homo sapiens)", 6.92),
    ("CCCN(C)CCc1cccc2ccc(OC)cc12", "5-HT2C (Homo sapiens)", 7.10),
    ("CN(C)CCc1cccc2cccc(O)c12", "5-HT2C (Homo sapiens)", 7.92),
    ("COc1cccc2cccc(CCN(C)C(C)C)c12", "5-HT2C (Homo sapiens)", 6.12),
]

Where do the numbers come from? From patent US20250333371A1.
